Assay: Exposure during ipGTT in ob/ob mice
Assay type: in vivo, mouse
Details: sc injection
Where a SMILES comes first, the peptide text is derived from it. [ ]: non-standard residue; d: D form. ξ: configuration not given here. Ala(6-(2-MePh)pyridin-3-yl) = Cc1ccccc1-c1ccc(C[C@H](N)C(=O)O)cn1; Bip(2'-Et-4'-OMe) = CCc1cc(OC)ccc1-c1ccc(C[C@H](N)C(=O)O)cc1; ξαMePhe(2-F) = CC(N)(Cc1ccccc1F)C(=O)O; Thr(3ξ) = CC(O)[C@H](N)C(=O)O; Aib = CC(C)(N)C(=O)O
Reported property: Exposure/dose during ipGTT in ob/ob mice (nM * h/nmol/kg)
One number for each entry, in nM * h/nmol/kg.

Task item: What does the data say about its Exposure/dose during ipGTT in ob/ob mice? Entry: CCc1cc(OC)ccc1-c1ccc(C[C@H](NC(=O)[C@H](CC(=O)O)NC(=O)[C@H](CO)NC(=O)[C@@H](NC(=O)C(C)(Cc2ccccc2F)NC(=O)[C@@H](NC(=O)CNC(=O)[C@H](CCC(=O)O)NC(=O)C(C)(C)NC(=O)[C@@H](N)Cc2c[nH]cn2)C(C)O)C(C)O)C(=O)N[C@@H](Cc2ccc(-c3ccccc3C)nc2)C(N)=O)cc1 (stereo partly shown) [SEQ ID NO: 9] (H-H[Aib]EG[Thr(3ξ)][ξαMePhe(2-F)][Thr(3ξ)]SD[Bip(2'-Et-4'-OMe)][Ala(6-(2-MePh)pyridin-3-yl)]-NH2)
Reply: 18
